Tested system: CDK2/E (Homo sapiens (Human), UniProt P24941)
Method description: ADP-Glo Kinase Assay, CDK2/E
Assay type: biochemical
Stated conditions: 1 μM compound; read-out: CDK2/E % INH (1 μM)
Structures can show the parent of a compound that is named as a salt.
Measured quantity: inhibition at 1 µM (%)

Example compounds with recorded inhibition at 1 µM:
CC(C)=CCn1c(N2CCNCC2)nc2c([N+](=O)[O-])c(Br)c(Br)cc21 [Example 2E, hydrochloride]	15
CCn1c(N2CC[C@H](N)C2)nc2c(C#N)c(Br)c(Br)cc21	28

[a] NCCCn1c(N2CC[C@@H](N)C2)nc2c([N+](=O)[O-])c(Br)c(Br)cc21
[b] CC(C)n1c(NC2CCC(N)CC2)nc2c(C#N)c(Br)c(Br)cc21 (stereo not shown)
Between the two listed entries a and b , which has its inhibition at 1 µM at the higher number? Your answer should be the label attached to the chosen record. a
(a: 20%, b: 7%)

* * *

Tested system: DYRK1 (Homo sapiens (Human))
Method description: ADP-Glo Kinase Assay, DYRK1
Type: biochemical
Stated conditions: 1 μM compound; read-out: DYRK1A % INH (1 μM)
Measured quantity: inhibition at 1 µM (%)

Example compounds with recorded inhibition at 1 µM:
CC(C)n1c(NC2CCC(N)CC2)nc2c(C#N)c(Br)c(Br)cc21 (stereo not drawn) [Example 1DY]	20
CC(C)n1c(N2CCNCC2)nc2c([N+](=O)[O-])c(C(F)(F)F)c(Br)cc21 [Example 9B]	33
CC(C)n1c(N2CCN[C@H](C)C2)nc2c([N+](=O)[O-])c(Br)c(Br)cc21 [Example 22AA]	43
CC(C)n1c(N2C[C@H]3C[C@@H]2CN3)nc2c([N+](=O)[O-])c(Br)c(Br)cc21 [Example 22AE]	95
CCCn1c(NCC(O)CN)nc2c([N+](=O)[O-])c(Br)c(Br)cc21 (stereo not drawn) [Example 1X]	16

[A] CCn1c(NC2CCNC2)nc2c([N+](=O)[O-])c(Br)c(Br)cc21 (stereo not drawn) [Example 1AF]
[B] CC(C)n1c(N2CCCC(N)C2)nc2c([N+](=O)[O-])c(Br)c(Br)cc21 (stereo not drawn) [Example 1T]
[C] CC(C)n1c(NC2CCC(N)CC2)nc2c([N+](=O)[O-])c(Br)c(Br)cc21 (stereo not drawn) [Example 1BC]
[D] CC(C)n1c(N2CC[C@@H](N)C2)nc2c(C#N)c(Br)c(Br)cc21 [Example 1BI]
Please rank these compounds by inhibition at 1 µM in descending order. In plain terms: list the labels in the order you were asked to. D, A, B, C

* * *

Tested system: UniProt P36888
Sequence (P36888 27-993): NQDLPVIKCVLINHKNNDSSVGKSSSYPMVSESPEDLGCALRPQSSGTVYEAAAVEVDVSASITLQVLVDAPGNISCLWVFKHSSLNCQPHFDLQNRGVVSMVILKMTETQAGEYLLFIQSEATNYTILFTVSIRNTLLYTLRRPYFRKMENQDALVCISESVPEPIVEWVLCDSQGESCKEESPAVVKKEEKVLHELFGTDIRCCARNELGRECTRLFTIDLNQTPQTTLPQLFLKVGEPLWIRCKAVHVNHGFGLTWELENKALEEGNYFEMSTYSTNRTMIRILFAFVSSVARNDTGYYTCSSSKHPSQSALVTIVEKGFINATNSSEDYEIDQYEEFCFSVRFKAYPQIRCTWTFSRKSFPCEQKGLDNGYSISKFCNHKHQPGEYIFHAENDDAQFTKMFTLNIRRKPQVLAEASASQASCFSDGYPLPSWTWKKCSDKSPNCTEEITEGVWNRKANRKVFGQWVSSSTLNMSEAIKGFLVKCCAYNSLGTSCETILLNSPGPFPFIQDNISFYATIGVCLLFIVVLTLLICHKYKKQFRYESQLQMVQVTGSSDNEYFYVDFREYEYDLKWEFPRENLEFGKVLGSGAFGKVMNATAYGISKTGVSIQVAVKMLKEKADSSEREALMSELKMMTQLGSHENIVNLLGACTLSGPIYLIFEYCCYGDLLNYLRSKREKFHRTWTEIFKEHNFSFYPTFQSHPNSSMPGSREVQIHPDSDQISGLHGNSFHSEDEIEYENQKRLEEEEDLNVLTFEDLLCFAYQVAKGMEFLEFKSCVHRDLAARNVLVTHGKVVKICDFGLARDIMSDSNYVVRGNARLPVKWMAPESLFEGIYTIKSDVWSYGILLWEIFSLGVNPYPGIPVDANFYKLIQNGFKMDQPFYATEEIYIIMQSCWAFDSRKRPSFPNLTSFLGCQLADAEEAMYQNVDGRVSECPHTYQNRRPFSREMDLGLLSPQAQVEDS
Method description: ADP-Glo Kinase Assay, Flt3 wt
Assay type: biochemical
Stated conditions: 1 μM compound; read-out: Flt3wt % INH (1 μM)
Counter-ions that a name gives are not always drawn.
Measured quantity: inhibition at 1 µM (%)

CC(C)n1c(N2CCCC(O)C2)nc2c([N+](=O)[O-])c(Br)c(Br)cc21 (centres unmarked) [Example 22G]	13

[P] CCn1c(N2CCNCC2)nc2c(C#N)c(Br)c(Br)cc21
[Q] CC(O)Cn1c(N2CCNCC2)nc2c([N+](=O)[O-])c(Br)c(Br)cc21 (centres unmarked)
[R] O=[N+]([O-])c1c(Br)c(Br)cc2c1nc(N1CCNCC1)n2CC1CCC1 [Example 2F, hydrochloride]
[S] CCn1c(N2CC[C@H](N)C2)nc2c(C#N)c(Br)c(Br)cc21
Arrange the 4 entries by inhibition at 1 µM so the values rise. In plain terms: list the labels in the order you were asked to. P, S, Q, R
(P: 11%, S: 18%, Q: 39%, R: 78%)

* * *

Tested system: CDK2/E (Homo sapiens (Human))
Method description: ADP-Glo Kinase Assay, CDK2/E
Type: biochemical
Stated conditions: 1 μM compound; read-out: CDK2/E % INH (1 μM)
Where a name gives a salt, the structure may show the parent alone.
Measured quantity: inhibition at 1 µM (%)

CC(C)n1c(N2CCCC(O)C2)nc2c([N+](=O)[O-])c(Br)c(Br)cc21 (centres unmarked) [Example 22G]	5

[A] CC(C)n1c(NC2CCNC2)nc2c([N+](=O)[O-])c(Br)c(Br)cc21 (centres unmarked)
[B] CCC(C)n1c(N2CCNCC2)nc2c([N+](=O)[O-])c(Br)c(Br)cc21 (centres unmarked) [Example 2I, hydrochloride]
From the items above, decide which of A and B has the lower inhibition at 1 µM reading. Your answer should be the label attached to the chosen record. A

[A] CCn1c(N2CCNCC2C)nc2c([N+](=O)[O-])c(Br)c(Br)cc21 (centres unmarked)
[B] CC(C)Cn1c(NCC(O)CN)nc2c([N+](=O)[O-])c(Br)c(Br)cc21 (centres unmarked)
Between the two listed entries A and B , which has its inhibition at 1 µM at the higher number? Your answer should be the label attached to the chosen record. A
(A: 26%, B: 6%)

* * *

Form field: IC50 (one value per entry).
Test system: Jeko-1 cells
Method description: Growth inhibition, MTS assay, Jeko-1
Type: cell-based, Human
Stated conditions: Homo sapiens, JeKo-1; 72 hours, MTS cell viability; read-out: Jeko-1 ED50
Where a name gives a salt, the structure may show the parent alone.
Report only the number, with the unit µM understood.

CCn1c(N2CC[C@H](N)C2)nc2c(C#N)c(Br)c(Br)cc21	1.3

Which IC50 is reported for this compound? CCCn1c(N2CCCC(N)C2)nc2c([N+](=O)[O-])c(Br)c(Br)cc21 (stereo not shown) 1.8

Which IC50 is reported for this compound? CCn1c(N2CCC(N)CC2)nc2c(C#N)c(Br)c(Br)cc21 1.4

Which IC50 is reported for this compound? CCn1c(NCC2CCCN2)nc2c([N+](=O)[O-])c(Br)c(Br)cc21 (stereo not shown) 2.8

Which IC50 is reported for this compound? O=[N+]([O-])c1c(Br)c(Br)cc2c1nc(N1CCNCC1)n2CCN1CCNCC1 [Example 2C, hydrochloride] 6.2

Which IC50 is reported for this compound? CC(C)n1c(N2CCCC(N)C2)nc2c([N+](=O)[O-])c(Br)c(Br)cc21 (stereo not shown) 1.7

Which IC50 is reported for this compound? CCn1c(NC2CCNC2)nc2c([N+](=O)[O-])c(Br)c(Br)cc21 (stereo not shown) 2.3

* * *

Tested on: HEL92 cells
Method description: Growth inhibition, MTS assay, HEL92
Type: cell-based, Human
Stated conditions: 72 hours, MTS cell viability; read-out: HEL92 ED50
Measured quantity: IC50 (µM)
Report only the number, with the unit µM understood.

Example molecules with recorded IC50:
CC(C)n1c(N2CC[C@@H](N)C2)nc2c([N+](=O)[O-])c(Br)c(Br)cc21 [Example 1AY]	1.9
CC(C)n1c(N2CCNCC2)nc2c([N+](=O)[O-])c(Br)c(F)cc21 [Example 1CL]	2.4
CCn1c(NCCN)nc2c([N+](=O)[O-])c(Br)c(Br)cc21 [Example 1AL]	5.3
CCn1c(N2CCNCC2C)nc2c([N+](=O)[O-])c(Cl)c(Cl)cc21 (stereo not shown) [Example 1DA]	1.1
CCCn1c(NCCCN)nc2c([N+](=O)[O-])c(Br)c(Br)cc21 [Example 1P]	7.0

Which IC50 is reported for this molecule? CCn1c(N2CCC[C@H](N)C2)nc2c([N+](=O)[O-])c(Br)c(Br)cc21 [Example 1AH] 6.0

Which IC50 is reported for this molecule? COCCn1c(N2CCNCC2)nc2c([N+](=O)[O-])c(Br)c(Br)cc21 [Example 1BB] 5.4

* * *

Tested system: Pim-3 (Homo sapiens (Human))
Method description: ADP-Glo Kinase Assay, Pim-3
Format: biochemical
Stated conditions: 1 μM compound; read-out: Pim-3 % INH (1 μM)
Where a name gives a salt, the structure may show the parent alone.
Measured quantity: inhibition at 1 µM (%)

CC(C)n1c(N2CCC[C@H](O)C2)nc2c([N+](=O)[O-])c(Br)c(Br)cc21 [Example 22I]	84
O=[N+]([O-])c1c(Br)c(Br)cc2c1nc(N1CCNCC1)n2CC1CCC1 [Example 2F, hydrochloride]	89
CC(C)n1c(NCCOCCN)nc2c([N+](=O)[O-])c(Br)c(Br)cc21 [Example 22J]	79

[A] CCn1c(N2CCCC2CN)nc2c([N+](=O)[O-])c(Br)c(Br)cc21 (centres unmarked)
[B] CCn1c(N2CCNC(C)(C)C2)nc2c([N+](=O)[O-])c(Br)c(Br)cc21 [Example 22W]
Between the two listed entries A and B , which has its inhibition at 1 µM at the higher number? Your answer should be the label attached to the chosen record. A
(A: 92%, B: 57%)

Data provenance: patent US10174013B2
